From: paper PMC9108660

biological target: dCas9 (catalytically deactivated Cas9) (UniProt Q99ZW2); experiment: SPR; conditions: 2 mM Mg2+; ka 0.11e5 M-1s-1, kd 6.5e-3 s-1; SPR: 2 mM MgCl2, 37 °C, 30 min, 2 µL DNA (up to 1000 ng/µL), dRNP on graphdiyne chip, rinse 2 mM MgCl2; bead assay: 2 mM MgCl2, 37 °C, 1 h; pH not stated
Sequence (Q99ZW2 whole entry): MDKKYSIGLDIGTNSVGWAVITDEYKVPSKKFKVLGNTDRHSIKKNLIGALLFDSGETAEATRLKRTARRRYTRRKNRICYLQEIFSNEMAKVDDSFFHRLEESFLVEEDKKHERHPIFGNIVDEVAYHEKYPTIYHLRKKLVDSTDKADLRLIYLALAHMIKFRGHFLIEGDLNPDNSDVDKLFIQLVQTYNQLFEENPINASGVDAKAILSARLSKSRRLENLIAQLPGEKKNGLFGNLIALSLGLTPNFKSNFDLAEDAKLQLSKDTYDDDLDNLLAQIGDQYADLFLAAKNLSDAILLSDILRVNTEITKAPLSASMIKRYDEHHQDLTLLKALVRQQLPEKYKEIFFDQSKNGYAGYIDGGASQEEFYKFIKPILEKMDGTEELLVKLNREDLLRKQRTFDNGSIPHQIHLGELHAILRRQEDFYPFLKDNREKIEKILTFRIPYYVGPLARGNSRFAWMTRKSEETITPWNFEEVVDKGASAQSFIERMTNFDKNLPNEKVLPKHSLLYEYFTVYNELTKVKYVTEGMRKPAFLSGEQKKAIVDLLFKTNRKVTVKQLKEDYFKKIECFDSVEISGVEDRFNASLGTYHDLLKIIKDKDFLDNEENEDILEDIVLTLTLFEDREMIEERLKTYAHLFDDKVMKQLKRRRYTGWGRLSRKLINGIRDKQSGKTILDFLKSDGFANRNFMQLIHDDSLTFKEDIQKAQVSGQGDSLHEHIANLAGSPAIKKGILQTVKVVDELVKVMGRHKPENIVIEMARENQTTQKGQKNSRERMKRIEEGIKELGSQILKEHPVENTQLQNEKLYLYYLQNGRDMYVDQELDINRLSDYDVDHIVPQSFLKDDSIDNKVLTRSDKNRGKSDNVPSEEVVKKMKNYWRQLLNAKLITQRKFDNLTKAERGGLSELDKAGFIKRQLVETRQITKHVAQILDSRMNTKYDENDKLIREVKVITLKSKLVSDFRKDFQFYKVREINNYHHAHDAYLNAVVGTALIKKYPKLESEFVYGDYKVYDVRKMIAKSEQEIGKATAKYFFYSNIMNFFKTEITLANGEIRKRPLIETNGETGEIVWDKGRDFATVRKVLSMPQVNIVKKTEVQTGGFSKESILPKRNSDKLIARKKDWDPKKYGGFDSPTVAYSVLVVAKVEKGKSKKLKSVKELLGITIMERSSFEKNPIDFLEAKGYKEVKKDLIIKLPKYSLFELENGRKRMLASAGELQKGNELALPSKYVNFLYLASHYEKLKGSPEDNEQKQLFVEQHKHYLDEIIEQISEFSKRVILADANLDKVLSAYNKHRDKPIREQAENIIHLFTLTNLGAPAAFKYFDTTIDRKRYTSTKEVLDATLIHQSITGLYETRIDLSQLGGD
value-kind: Kd (nM)
Give bare numbers, in nM.

Data request, read-out Kd, for GGGGUUCGCCUUCCGCCGCGUGGGUUUUAGAGCUAGAAAUAGCAAGUUAAAAUAAGGCUAGU [sgRNA-GFP-Pos3 + pCDH-GFP-5k amplicon]
591
